# Tested on: human mammary cells (MCF-7)
# PROTOCOL_TEXT: MTT assay, MCF-7 cells
# Type: cell-based
# REPORTED_CONDITIONS: 570 nm, method gives serial dilutions 0.09–50 μmol L^−1, 2 and 24 hr (time for IC50 not stated), triplicate, NO = not observed, read-out: IC50, concentration of peptide needed for killing 50% of MCF-7
No end group written: not given here.
PROPERTY_MEASURED: IC50

- ILGTILGLLKSL-NH2 [Pol-CP-NH2]: 200 µM
- ILGKILGLLKSL-NH2 [[Lys]^4-Pol-CP-NH2]: 200 µM
